The reported measurements were obtained from patent US20210252011A1.

Measurement description: Determination of brain exposure in Balb/c nude mice following oral administration
Format: in vivo
Cond: mouse, brain/plasma, 5 mg/kg oral gavage, one value given, time point (2 or 8 h) not stated, read-out: [Brain]/[Plasma] at 2, 8 h (single value)
Measurement label: Kp

{"Query smiles": "C[C@@H]1CN(C(=O)c2ccc(-c3nc4ccc(F)cc4o3)cc2)C[C@H](C)N1C(=O)C1(N)CC1", "Measurement label": "Kp", "Recorded value": 0.12}

(A) O=C(c1ccc(-c2nc3ccc(F)cc3o2)cc1F)N1CCN(C(=O)[C@H]2CCCO2)CC1
(B) C[C@H]1CN(C(=O)c2ccc(-c3nc4ccc(F)cc4o3)cc2F)CCN1C(=O)C1(N)CC1
Hi there, can you help? I need to know whether A or B has lower measured Kp. Select an item and report its label.
B
(B: 0.05, A: 0.105)

====

Measurement description: Determination of brain exposure in Balb/c nude mice following oral administration
Assay type: in vivo
Cond: 5 mg/kg oral gavage, 2 h post dose
Measurement label: Brain (μM) at 2 h (µM)

The cases that follow already have their Brain (μM) at 2 h on record.
{"Molecule": "Cn1cc(-c2ccc(-c3ccc(C(=O)N4CCN(C(=O)C5(O)CC5)CC4)cc3)cc2)cn1 [Compound 13]", "Brain (μM) at 2 h (µM)": 0.28}
{"Molecule": "C[C@H]1CN(C(=O)c2ccc(-c3nc4ccc(F)cc4o3)cc2)CCN1C(=O)C1(O)CC1 [Compound 1]", "Brain (μM) at 2 h (µM)": 1.3}

(1) O=C(c1ccc(-c2nc3ccc(F)cc3o2)cc1F)N1CCN(C(=O)C2(O)CC2)CC1 [Compound 5]
(2) C[C@H]1CN(C(=O)c2ccc(-c3ccc4c(c3)ncn4C)cc2F)CCN1C(=O)C1(O)CC1 [Compound 10]
(3) C[C@H]1CN(C(=O)c2ccc(-c3ccc4c(c3)ncn4C)cc2)CCN1C(=O)C1(O)CC1 [Compound 11]
(4) C[C@@H]1CN(C(=O)c2ccc(-c3nc4ccc(F)cc4o3)cc2)C[C@H](C)N1C(=O)C1(O)CC1 [Compound 2]
Order the entries by their reported Brain (μM) at 2 h, beginning at the minimum. Output spec: labels arranged per the requested ranking.
3, 2, 4, 1

====

Measurement description: Determination of brain exposure in Balb/c nude mice following oral administration
Type: in vivo
Cond: 5 mg/kg oral gavage, 8 h post dose
Measurement label: [Brain]/[Plasma] at 8 h

{"Query smiles": "C[C@@H]1CN(C(=O)c2ccc(-c3nc4ccc(F)cc4o3)cc2)C[C@H](C)N1C(=O)C1(O)CC1", "[Brain]/[Plasma] at 8 h": 0.21}

(a) Cn1cc(-c2ccc(-c3ccc(C(=O)N4CCN(C(=O)C5(O)CC5)CC4)cc3)cc2)cn1
(b) C[C@H]1CN(C(=O)c2ccc(-c3nc4ccc(F)cc4o3)cc2)CCN1C(=O)C1(O)CC1
(c) Cn1cnc2cc(-c3ccc(C(=O)N4CCN(C(=O)C5(O)CC5)CC4)c(F)c3)ccc21
(d) Cn1cnc2cc(-c3ccc(C(=O)N4CCN(C(=O)C5(O)CC5)CC4)cc3)ccc21
Kindly order the items shown according to [Brain]/[Plasma] at 8 h, from the highest value down. Put the labels in the requested order and write them down.
b, a, c, d

(P) O=C(c1ccc(-c2nc3ccc(F)cc3o2)cc1F)N1CCN(C(=O)C2(O)CC2)CC1
(Q) C[C@H]1CN(C(=O)c2ccc(-c3ccc4c(c3)ncn4C)cc2)CCN1C(=O)C1(O)CC1
(R) C[C@H]1CN(C(=O)c2ccc(-c3ccc4c(c3)ncn4C)cc2F)CCN1C(=O)C1(O)CC1
Rank the 3 compounds: largest [Brain]/[Plasma] at 8 h first, smallest last. Answer with the labels in sequence, matching the requested order.
P, R, Q
(P: 0.19, R: 0.004, Q: 0.000)

(1) C[C@H]1CN(C(=O)c2ccc(-c3nc4ccc(F)cc4o3)cc2F)CCN1C(=O)C1(O)CC1
(2) O=C(c1ccc(-c2nc3ccc(F)cc3o2)cc1)N1CCN(C(=O)C2(O)CC2)CC1
Response body: label of entry with the larger [Brain]/[Plasma] at 8 h; valid values 1 , 2 . Returns: label corresponding to the selected item.
2
